The measurements presented in this section are drawn from paper PMC5540273.

# Tested on: PCTK1
# Construct: gene CDK16
# CONDITION_INFO: concentration: 1 μM, replicates: in singlicate; n = 1;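 note: KINOMEscan kinase panel screen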
MEASUREMENT_KIND: %Inh (%)
Your answer is read as %, so omit the unit and give the number.

Cc1ccc(S(=O)(=O)Nc2ccc(Nc3nccc(Nc4cccc5[nH]ncc45)n3)cc2)cc1: 2
CC(C)c1nc(-c2cccc(NS(=O)(=O)c3c(F)cccc3F)c2F)c(-c2ccnc(Nc3ccc(N4CCOCC4)nc3)n2)s1: 99.5
O=C(Nc1ccccc1F)NC1CCN(c2ccnc(Nc3ccc(F)cc3)n2)CC1: 0
C[C@@H]1CC[C@@H](C(=O)Nc2ccccc2)CN1c1cc(-c2ccc3c(N)n[nH]c3c2)nc(N)n1: 0
COc1ccc(Nc2nccc(NCCNC(=O)c3cc4ccccc4s3)n2)cc1: 1
c1ccc(Oc2ccc(Nc3ccnc4cc(-c5ccc(CNCCN6CCOCC6)o5)ccc34)cc2)nc1: 0
COc1ccc(-c2coc3ccc(-c4nnc(SCc5ccc(OC)c(C(F)(F)F)c5)o4)cc23)cc1: 0
Cl.Cl.NCC(NCc1ccc(-c2ccnc3[nH]ccc23)s1)c1ccccc1 (centres unmarked): 0

-- ask For the molecule NCCCC(NC(=O)c1cc(Br)c(-c2ccnc3[nH]ccc23)s1)c1ccccc1.O=C(O)C(F)(F)F.O=C(O)C(F)(F)F (centres unmarked) , report %Inh.
-- reply 10

-- ask For the molecule Cl.c1ccc(-c2ccc3c(Nc4ccc5[nH]ncc5c4)ccnc3c2)nc1 , report %Inh.
-- reply 2

-- ask For the molecule c1ccc(-c2cnc3nccnn23)cc1 , report %Inh.
-- reply 7

-- ask For the molecule Cl.Cl.NCC(NC(=O)c1cc(-c2ccccc2)c(-c2ccnc3[nH]ccc23)s1)c1ccccc1 (centres unmarked) , report %Inh.
-- reply 7

-- ask For the molecule CC(=O)N1CCN(c2ccc(Nc3nccc(-c4sc(C(C)C)nc4-c4cccc(NS(=O)(=O)c5cccc(Cl)c5)c4)n3)cn2)CC1 , report %Inh.
-- reply 98.6

-- ask For the molecule COc1ccc(Nc2nccc(N3CCC(NC(=O)Nc4cccc(OC)c4)C3)n2)cc1 (centres unmarked) , report %Inh.
-- reply 4

-- ask For the molecule CN1CCN(CCCNc2nccc(-c3c(-c4ccc(F)cc4)nn4cc(C(F)(F)F)ccc34)n2)CC1 , report %Inh.
-- reply 0

---

The reader will find reported %Inh values listed item by item below.
# System: TRKA
# Construct: gene NTRK1
# CONDITION_INFO: concentration: 1 μM, replicates: in singlicate; n = 1
Your answer is read as %, so omit the unit and give the number.

Sample records with %Inh:
Cn1cc(-c2ccc3c(c2)CCN3C(=O)Cc2cccc(Cl)c2)c2c(N)ncnc21 [GSK2606590]: 73
C[C@@H]1CC[C@@H](C(=O)Nc2ccccc2)CN1c1cc(-c2ccc3c(N)n[nH]c3c2)nc(N)n1 [GSK2286062]: 12
COc1cccc(-c2ccc3c(NC(=O)C4CC4)n[nH]c3n2)c1 [SB-710903]: 0

-- ask For the molecule COc1cccc(C(=O)Nc2cccc(Oc3ccc4nc(NC(=O)C5CC5)cn4n3)c2)c1 , report %Inh.
-- reply 0

---

The reader will find reported %Inh values listed item by item below.
# Test system: AKT2
# CONDITION_INFO: concentration: 1 μM, replicates: in singlicate; n = 1
Your answer is read as %, so omit the unit and give the number.

FC(F)(F)c1ccc(/C=C/c2cncnc2Nc2ccc3[nH]c(Cc4ccccc4)nc3c2)cc1: 0
Cc1ccc(C(=O)Nc2ccc(Nc3ccnc4cc(-c5nccs5)ccc34)cc2O)cc1.Cl: 6
c1ccc(Oc2ccc(Nc3ccnc4cc(-c5ccc(CNCCN6CCOCC6)o5)ccc34)cc2)nc1: 10

// switching to the query compound
-- ask For the compound CCCCc1nn2ncccc2c1-c1ccnc(Nc2ccc(N3CCN(C)CC3)cc2)n1 , report %Inh.
-- reply 0

---

The reader will find reported %Inh values listed item by item below.
# Tested on: RPS6KA4(Kin.Dom.1-N-terminal)
# CONDITION_INFO: concentration: 1 μM, replicates: in singlicate; n = 1
Your answer is read as %, so omit the unit and give the number.

Sample records with %Inh:
Cc1ccc(C(=O)Nc2ccc(Nc3ccnc4cc(-c5nccs5)ccc34)cc2O)cc1.Cl [GW494702]: 0
COc1ccc(Nc2nccc(N3CCC(NC(=O)Nc4cccc(OC)c4)C3)n2)cc1 (stereo not shown) [GSK1379742]: 15
CC(C)(C)c1ccc2nccc(Nc3cccc(O)c3)c2c1 [GW856795]: 0

// switching to the query compound
-- ask For the compound CN(C)Cc1ccc(-c2ccc3c(Nc4ccc(Oc5ccccn5)cc4)ccnc3c2)o1 [GW567148] , report %Inh.
-- reply 2

---

The reader will find reported %Inh values listed item by item below.
# Tested on: LIMK1
# CONDITION_INFO: concentration: 1 μM, replicates: in singlicate; n = 1
Your answer is read as %, so omit the unit and give the number.

O=c1[nH]cc(-c2ccc(N3CCOCC3)cc2)c2sc(-c3cn[nH]c3)cc12 [GSK2276055]: 0
COc1cc(Nc2ncc3c(C)nc(-c4cc5ccccc5[nH]4)n3n2)cc(OC)c1OC [GW869516]: 0
FC(F)(F)c1ccc(/C=C/c2cncnc2Nc2ccc3[nH]c(Cc4ccccc4)nc3c2)cc1 [GW709199]: 0
O=C(Nc1n[nH]c2nc(-c3ccc(O)cc3)ccc12)C1CC1 [SB-710363]: 2
Cl.Cl.NCC(NCc1ccc(-c2ccnc3[nH]ccc23)s1)c1ccccc1 (stereo not drawn) [GSK1321565]: 0
CN1CCN(CCCNc2nccc(-c3c(-c4ccc(F)cc4)nn4cc(C(F)(F)F)ccc34)n2)CC1 [GW621581]: 0
CCc1ccc(-c2ccc3c(c2)-c2c(cnn2C)S(=O)(=O)N3C)cc1: 0
Nc1ncnc2c1nc(-c1ccccc1)n2-c1ccccc1 [SKF-97293]: 0
Oc1cc(Nc2ccnc3cc(I)ccc23)ccc1F [GW552771]: 8
CCn1c(-c2nonc2N)nc2c(C#CC(C)(C)O)ncc(OCCCCN)c21.O=C(O)C(F)(F)F.O=C(O)C(F)(F)F [GSK507274]: 0

-- ask For the molecule CNC(=O)c1ccccc1Nc1nc(Nc2ccc(N3CCOCC3)cc2)ncc1Cl.Cl [GSK1576028] , report %Inh.
-- reply 46

-- ask For the molecule COc1ccc(-c2coc3ccc(-c4nnc(SCc5ccc(OC)c(C(F)(F)F)c5)o4)cc23)cc1 , report %Inh.
-- reply 25

-- ask For the molecule Cn1cc(-c2ccc3c(c2)CCN3C(=O)Cc2cccc(Cl)c2)c2c(N)ncnc21 [GSK2606590] , report %Inh.
-- reply 3

-- ask For the molecule Nc1n[nH]c2cnc(-c3ccccc3)cc12 [SB-642124] , report %Inh.
-- reply 19

-- ask For the molecule COc1cccc(C(=O)Nc2cccc(Oc3ccc4nc(NC(=O)C5CC5)cn4n3)c2)c1 , report %Inh.
-- reply 19

-- ask For the molecule Cn1cc(-c2[nH]c3cc(NC(=O)[C@H](N)C4CCCCC4)cc4c3c2C=NNC4=O)cn1 , report %Inh.
-- reply 90.6

-- ask For the molecule NCCCC(NC(=O)c1cc(Br)c(-c2ccnc3[nH]ccc23)s1)c1ccccc1.O=C(O)C(F)(F)F.O=C(O)C(F)(F)F (stereo not drawn) [GSK1287544] , report %Inh.
-- reply 6

-- ask For the molecule COc1ccc(CNC(=O)NC2CCN(c3ccnc(Nc4ccc(F)cc4)n3)CC2)cc1 [GSK1379788] , report %Inh.
-- reply 0

-- ask For the molecule O=C(NC1CCN(c2ccnc(Nc3ccc(F)cc3)n2)C1)c1cc2ccccc2s1 (stereo not drawn) [GSK1379716] , report %Inh.
-- reply 0

-- ask For the molecule CC(=O)Nc1nc2cnc(Nc3cc(NC(=O)c4cccc(C5(C#N)CC5)c4Cl)ccc3C)nc2s1 , report %Inh.
-- reply 0

-- ask For the molecule Nc1ncc(-c2ccc3nccc(-c4ccncc4)c3c2)cc1S(=O)(=O)N1CCOCC1 [GSK1627798] , report %Inh.
-- reply 0

-- ask For the molecule Cc1cccc(Nc2nc(N[C@H]3CCNC3)ncc2C(N)=O)c1.Cl [GSK2197149] , report %Inh.
-- reply 0

-- ask For the molecule COc1ccc(Nc2nccc(N3CCC(NC(=O)Nc4cccc(OC)c4)C3)n2)cc1 (stereo not drawn) [GSK1379742] , report %Inh.
-- reply 4

-- ask For the molecule Cl.c1ccc(-c2ccc3c(Nc4ccc5[nH]ncc5c4)ccnc3c2)nc1 [GW440137] , report %Inh.
-- reply 9

---

The reader will find reported %Inh values listed item by item below.
# Test system: KIT-autoinhibited
# CONDITION_INFO: concentration: 1 μM, replicates: in singlicate; n = 1
Your answer is read as %, so omit the unit and give the number.

-- ask For the molecule O=C(Nc1ccccc1F)NC1CCN(c2ccnc(Nc3ccc(F)cc3)n2)CC1 [GSK1379800] , report %Inh.
-- reply 0
